# EXPERIMENTAL SYSTEM: T1, GST-TIAM1 PDZ domain fusion protein (Homo sapiens (Human), UniProt Q13009 845-931)
# T1 construct: also called TLAM1; T-lymphoma invasion and metastasis inducing protein 1; not shown: glutathione S-transferase encoded by vector pGEX-3X (Pharmacia)
# T1 sequence (Q13009 other isoform, or with tags, fused parts or gaps): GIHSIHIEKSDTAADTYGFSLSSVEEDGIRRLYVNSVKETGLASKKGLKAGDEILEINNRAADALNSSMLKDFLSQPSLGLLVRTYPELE
# EXPERIMENT NOTES: A/G assays
Ends that are not written are not given here. * marks the point of attachment. Biotin = O=C1N[C@H]2[C@H](CS[C@H]2CCCCC(=O)*)N1
ENDPOINT: binding result

{"BINDER": "Biotin-PYGTAMEKAQLKPPATSDA (also called CD49E (alpha-4)) [CD49E C-terminal peptide AA11L, biotinylated]", "ENDPOINT": "binding result", "RESULT": "no binding"}
{"BINDER": "Biotin-LNFPLLQGIRVHGMEALGSF (Only the last four residues are seen in the excerpts) [CD114 (G-CSFR) C-terminal peptide AA27L]", "ENDPOINT": "binding result", "RESULT": "no binding"}
{"BINDER": "Biotin-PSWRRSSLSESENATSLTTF (also called CXCR5) [BLR-1 C-terminal peptide AA45L, biotinylated]", "ENDPOINT": "binding result", "RESULT": "no binding"}
{"BINDER": "Biotin-TTNNNPNSAVNIKKIFTDV [KV1.3 C-terminal peptide AA33L, biotinylated]", "ENDPOINT": "binding result", "RESULT": "no binding"}
{"BINDER": "Biotin-STNHSIGSTQSTPCSTSSMA (also called CD105 (endoglin)) [CD105 C-terminal peptide AA16L, biotinylated]", "ENDPOINT": "binding result", "RESULT": "no binding"}
{"BINDER": "Biotin-DLGNMEENKKLEENNHKTEA (also called CD166 (CD6L)) [CD166 C-terminal peptide AA20L, biotinylated]", "ENDPOINT": "binding result", "RESULT": "no binding"}
{"BINDER": "Biotin-ISKATPALPTVSISSSAEV (also called AA1L-R) [Clasp-1 C-terminal peptide AA1L, biotinylated]", "ENDPOINT": "binding result", "RESULT": "no binding"}

Each recorded value in this set is attributed to patent US20050037969A1.
